assay-system: T1, HLA-A*01:01 (human, biotinylated heavy chain)
T1 construct: Conditional HLA class I complex (heavy chain + B2M) first held by a UV-labile peptide; the tested peptide is exchanged in after UV cleavage
assay-name: UV peptide exchange; HLA class I ELISA
endpoint: Exch II (%)

binder | endpoint | assay-result
YHREKQLIA [Peptide 6, 9-mer YHREKQLIA derived from P22 (SEQ ID NO: 1003)] | Exch II (%) | 5.5
LIAMDSAIT [Peptide 10, 9-mer LIAMDSAIT derived from P22 (SEQ ID NO: 1003)] | Exch II (%) | 5.4
HREKQLIAM [Peptide 7, 9-mer HREKQLIAM derived from P22 (SEQ ID NO: 1003)] | Exch II (%) | 5.2
LYHREKQLI [Peptide 5, 9-mer LYHREKQLI derived from P22 (SEQ ID NO: 1003)] | Exch II (%) | 5.8

These data points were gathered from patent US20230029453A1.
